// data source = patent US20200055848A1

Target: UniProtKB P28482
Sequence (P28482 whole entry): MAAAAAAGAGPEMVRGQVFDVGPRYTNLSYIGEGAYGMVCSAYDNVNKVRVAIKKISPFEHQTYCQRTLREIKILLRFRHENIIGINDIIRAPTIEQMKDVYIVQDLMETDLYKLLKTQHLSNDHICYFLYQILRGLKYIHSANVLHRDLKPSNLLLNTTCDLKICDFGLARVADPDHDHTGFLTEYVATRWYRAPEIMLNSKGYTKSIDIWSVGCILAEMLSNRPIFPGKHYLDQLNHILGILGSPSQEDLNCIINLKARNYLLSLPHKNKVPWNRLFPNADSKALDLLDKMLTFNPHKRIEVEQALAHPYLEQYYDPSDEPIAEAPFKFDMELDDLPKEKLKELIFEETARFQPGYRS
Test: Kinase selectivity IC50, Erk2
Format: biochemical
Conditions: 1 mM ATP with preincubation; mean of duplicated assays

- molecule: "CCOC(=O)C1=C(Nc2ccccc2Cl)OC(=Cc2c[nH]c3ncccc23)C1=O [Compound 13]"
  IC50: "61 nM"

* * *

Target: Erk1 (Homo sapiens)
Sequence (P27361 whole entry): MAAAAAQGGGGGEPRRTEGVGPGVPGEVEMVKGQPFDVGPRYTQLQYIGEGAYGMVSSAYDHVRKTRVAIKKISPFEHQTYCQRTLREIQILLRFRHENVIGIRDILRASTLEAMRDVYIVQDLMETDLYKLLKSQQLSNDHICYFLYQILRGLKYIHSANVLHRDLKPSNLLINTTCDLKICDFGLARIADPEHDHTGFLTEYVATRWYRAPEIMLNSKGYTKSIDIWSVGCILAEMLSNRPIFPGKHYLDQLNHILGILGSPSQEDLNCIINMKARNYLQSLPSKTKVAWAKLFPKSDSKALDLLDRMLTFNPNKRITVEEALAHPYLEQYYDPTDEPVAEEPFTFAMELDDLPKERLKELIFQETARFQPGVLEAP
Experiment: Kinase selectivity IC50, Erk1
Assay type: biochemical
Conditions: 1 mM ATP with preincubation; mean of duplicated assays
measure: IC50 (nM)

- structure: "CCOC(=O)C1=C(Nc2ccccc2Cl)OC(=Cc2c[nH]c3ncccc23)C1=O"
  assay.system: "Erk1 (Homo sapiens)"
  measure: "IC50"
  observed: 278

* * *

Experiment: In vitro metabolic stability, mouse liver microsomes
Type: in vitro ADME
Conditions: 30 min treatment of mouse liver microsomes

- structure: "CCOC(=O)C1=C(Nc2ccccc2F)OC(=Cc2c[nH]c3ncccc23)C1=O"
  MLM % (remaining % of parent compound) / %: 10
- structure: "CCOC(=O)C1=C(Nc2ccc(F)cc2F)OC(=Cc2c[nH]c3ncccc23)C1=O"
  MLM % (remaining % of parent compound) / %: 12
- structure: "CCOC(=O)C1=C(Nc2ccc(OC)cc2)OC(=Cc2c[nH]c3ncccc23)C1=O"
  MLM % (remaining % of parent compound) / %: 5.1
- structure: "CCOC(=O)C1=C(Nc2ccc(C)cc2C)OC(=Cc2c[nH]c3ncccc23)C1=O"
  MLM % (remaining % of parent compound) / %: 30

* * *

Test: In vitro metabolic stability, human liver microsomes
Assay type: in vitro ADME
Details: 30 min treatment of human liver microsomes
Experimental: NADPH regeneration system (13 mM NADP, 33 mM Glucose-6-phospate, 33 mM MgCl2, and 4 U/mL of Glucose-6-phosphate dehydrogenase) and liver microsomes (1 mg/mL of HLM (BD Gentest, lot 18888) or MLM (BD Gentest, lot 31197)) in 0.1 M phosphate buffer (pH 7.4) were pre-incubated separately at 37° C. for 20 min before mixing with 1:4 ratio. […] 110 μL of supernatant was mixed with 110 μL of water and quantitated by LC-MS/MS workstation (Shimazu Corp.).
measure: HLM % (remaining % of parent compound)

- compound: "CCOC(=O)C1=C(Nc2ccc(OC)cc2)OC(=Cc2c[nH]c3ncccc23)C1=O [Compound 18]"
  measure: "HLM % (remaining % of parent compound)"
  observed: "33%"
- compound: "CCOC(=O)C1=C(Nc2ccccc2Cl)OC(=Cc2c[nH]c3ncccc23)C1=O [Compound 13]"
  measure: "HLM % (remaining % of parent compound)"
  observed: "67%"
- compound: "CCOC(=O)C1=C(Nc2ccc(F)cc2)OC(=Cc2c[nH]c3ncccc23)C1=O [Compound 20]"
  measure: "HLM % (remaining % of parent compound)"
  observed: "52%"
- compound: "CCOC(=O)C1=C(Nc2ccc(F)cc2F)OC(=Cc2c[nH]c3ncccc23)C1=O [Compound 23]"
  measure: "HLM % (remaining % of parent compound)"
  observed: "57%"
- compound: "CCOC(=O)C1=C(Nc2ccc(C)cc2C)OC(=Cc2c[nH]c3ncccc23)C1=O [Compound 24]"
  measure: "HLM % (remaining % of parent compound)"
  observed: "63%"
- compound: "CCOC(=O)C1=C(Nc2ccccc2F)OC(=Cc2c[nH]c3ncccc23)C1=O [Compound 19]"
  measure: "HLM % (remaining % of parent compound)"
  observed: "30%"
- compound: "CCOC(=O)C1=C(Nc2ccccc2)OC(=Cc2c[nH]c3ncccc23)C1=O [Compound 3]"
  measure: "HLM % (remaining % of parent compound)"
  observed: "23%"
